EXPERIMENTAL TARGET: Potassium voltage-gated channel subfamily KQT member 1 (Homo sapiens)
EXPERIMENT NOTES: KCNQ1 potassium channel potentiators, confirmation, FluxOR thallium flux, CHO cells, duplicates (AID 493007)
RUN CONDITIONS: KCNQ1 cell line, FluxOR thallium flux fluorescence, at 10 µM, % of reference activator effect, buffer zero
Active and inactive are the calls of the source.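 Rule for the calls: active = potentiation averaged over duplicate wells exceeding buffer-only control mean by more than 3 SD; inactive = the rest.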
Return exactly one item of y for active, n for inactive

Please review the entries below; each comes with its answer.
{"COMPOUND": "Cc1[nH]n(C(N)=S)c(=O)c1N=Nc1ccc2ccccc2c1", "CATEGORY LABEL": "y"}
{"COMPOUND": "CCOC(=O)c1c(NC(=S)NCC2CCCO2)sc(C)c1C (stereo unspecified)", "CATEGORY LABEL": "n"}

Prompt: Hi team, can someone confirm the assay call for CC1Oc2ccccc2OC1(O)c1ccccn1 (stereo unspecified) ?
Completion: y

Prompt: Hi team, can someone confirm the assay call for O=C(Nc1ccc2[nH]c(=S)sc2c1)c1ccccc1 ?
Completion: y

Prompt: Hi team, can someone confirm the assay call for Nc1c(Cl)cc(C2=NCCn3nc4cc(C(F)(F)F)ccc4c32)cc1Cl ?
Completion: n

Prompt: Hi team, can someone confirm the assay call for Cc1cc(Cl)ccc1OCC(=O)N/N=C1\CC2C=CCC12 (stereo unspecified) ?
Completion: n

* * *

EXPERIMENTAL TARGET: Short transient receptor potential channel 6 (Mus musculus) (UniProt Q61143)
Sequence (Q61143 whole entry, looked up): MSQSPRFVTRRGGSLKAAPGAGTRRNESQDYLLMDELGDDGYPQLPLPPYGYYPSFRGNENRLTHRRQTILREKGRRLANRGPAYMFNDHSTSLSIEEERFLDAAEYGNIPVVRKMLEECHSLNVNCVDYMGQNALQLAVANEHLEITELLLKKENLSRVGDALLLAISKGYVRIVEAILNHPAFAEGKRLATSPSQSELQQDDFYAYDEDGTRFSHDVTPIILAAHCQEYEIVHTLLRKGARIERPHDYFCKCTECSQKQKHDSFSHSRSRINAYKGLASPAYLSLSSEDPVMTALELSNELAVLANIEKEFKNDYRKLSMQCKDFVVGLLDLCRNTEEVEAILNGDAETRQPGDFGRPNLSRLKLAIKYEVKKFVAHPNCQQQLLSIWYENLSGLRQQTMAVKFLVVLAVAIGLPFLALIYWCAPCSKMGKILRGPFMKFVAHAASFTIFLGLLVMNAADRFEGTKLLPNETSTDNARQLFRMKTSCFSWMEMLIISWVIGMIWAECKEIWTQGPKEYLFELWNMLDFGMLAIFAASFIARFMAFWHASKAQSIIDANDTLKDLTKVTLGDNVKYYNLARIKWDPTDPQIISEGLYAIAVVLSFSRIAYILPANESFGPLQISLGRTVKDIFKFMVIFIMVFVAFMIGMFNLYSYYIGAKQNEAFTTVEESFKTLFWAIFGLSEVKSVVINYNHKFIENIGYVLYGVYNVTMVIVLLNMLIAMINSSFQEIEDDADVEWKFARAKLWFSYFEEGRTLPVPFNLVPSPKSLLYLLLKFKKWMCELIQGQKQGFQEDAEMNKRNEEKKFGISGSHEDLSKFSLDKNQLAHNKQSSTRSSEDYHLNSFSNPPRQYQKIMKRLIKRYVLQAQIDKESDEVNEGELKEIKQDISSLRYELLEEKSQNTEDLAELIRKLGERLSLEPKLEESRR
EXPERIMENT NOTES: TRPC6 potentiation by TRPC4 potentiator hits, confirmation, selectivity assay for TRPC4 potentiator project, HEK293 cells, membrane potential dye, duplicate (AID 434952)
RUN CONDITIONS: HEK293 TRPC6, membrane potential dye fluorescence, at 10 µM, maximal acetylcholine added after compound
Active and inactive are the calls of the source.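 Rule for the calls: active = compound raising the membrane signal above positive-control mean plus 3 SD in both repeats, and a primary screen hit; inactive = the rest.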
Return exactly one item of active, inactive

{"MOLECULE": "CCC1(c2ccc(F)cc2)NC(=O)N(CC(=O)c2cc(C)n(C3CC3)c2C)C1=O (configuration not stated)", "EXPERIMENTAL TARGET": "Short transient receptor potential channel 6 (Mus musculus) (UniProt Q61143)", "CATEGORY LABEL": "inactive"}
{"MOLECULE": "C=CCn1c(CCNC(=O)C(C)(C)C)nc2ccccc21", "EXPERIMENTAL TARGET": "Short transient receptor potential channel 6 (Mus musculus) (UniProt Q61143)", "CATEGORY LABEL": "inactive"}
{"MOLECULE": "COC(=O)c1ccccc1N=Nc1c(N)[nH][nH]c1=O", "EXPERIMENTAL TARGET": "Short transient receptor potential channel 6 (Mus musculus) (UniProt Q61143)", "CATEGORY LABEL": "inactive"}

Prompt: Hi team, can someone confirm the assay call for Cc1cccc(C(=O)NNC(=S)NC(=O)c2cccs2)c1 ?
Completion: inactive

Prompt: Hi team, can someone confirm the assay call for CC(=O)N1CCc2cc(Br)cc(S(=O)(=O)NCCCN(C)Cc3ccccc3)c21 ?
Completion: inactive

Prompt: Hi team, can someone confirm the assay call for Fc1ccc(C(c2nnnn2Cc2cccs2)N2CCN(C3CCCCC3)CC2)cc1 (configuration not stated) ?
Completion: inactive

Prompt: Hi team, can someone confirm the assay call for CCN1CCN(c2ccc(S(=O)(=O)N3CCCCC3)cc2NC(=O)c2cccc(C)c2[N+](=O)[O-])CC1 ?
Completion: inactive

Prompt: Hi team, can someone confirm the assay call for CN(C)CCCN(C(=O)c1ccc(S(=O)(=O)N(C)C)cc1)c1nc2ccc(F)cc2s1 ?
Completion: inactive

Prompt: Hi team, can someone confirm the assay call for Cc1ccc(C(=O)NNC(=S)NC(=O)c2ccc(Cl)cc2)cc1 ?
Completion: inactive

Prompt: Hi team, can someone confirm the assay call for COc1ccc(CCN(C)CCN2C(=O)c3ccccc3C2=O)cc1OC ?
Completion: inactive

Prompt: Hi team, can someone confirm the assay call for Cc1cc(-c2nn(-c3ccccc3F)cc2CNCCc2cnc[nH]2)c(C)s1 ?
Completion: inactive

* * *

EXPERIMENTAL TARGET: Short transient receptor potential channel 4 (Mus musculus) (UniProt Q9QUQ5)
Sequence (Q9QUQ5 whole entry, looked up): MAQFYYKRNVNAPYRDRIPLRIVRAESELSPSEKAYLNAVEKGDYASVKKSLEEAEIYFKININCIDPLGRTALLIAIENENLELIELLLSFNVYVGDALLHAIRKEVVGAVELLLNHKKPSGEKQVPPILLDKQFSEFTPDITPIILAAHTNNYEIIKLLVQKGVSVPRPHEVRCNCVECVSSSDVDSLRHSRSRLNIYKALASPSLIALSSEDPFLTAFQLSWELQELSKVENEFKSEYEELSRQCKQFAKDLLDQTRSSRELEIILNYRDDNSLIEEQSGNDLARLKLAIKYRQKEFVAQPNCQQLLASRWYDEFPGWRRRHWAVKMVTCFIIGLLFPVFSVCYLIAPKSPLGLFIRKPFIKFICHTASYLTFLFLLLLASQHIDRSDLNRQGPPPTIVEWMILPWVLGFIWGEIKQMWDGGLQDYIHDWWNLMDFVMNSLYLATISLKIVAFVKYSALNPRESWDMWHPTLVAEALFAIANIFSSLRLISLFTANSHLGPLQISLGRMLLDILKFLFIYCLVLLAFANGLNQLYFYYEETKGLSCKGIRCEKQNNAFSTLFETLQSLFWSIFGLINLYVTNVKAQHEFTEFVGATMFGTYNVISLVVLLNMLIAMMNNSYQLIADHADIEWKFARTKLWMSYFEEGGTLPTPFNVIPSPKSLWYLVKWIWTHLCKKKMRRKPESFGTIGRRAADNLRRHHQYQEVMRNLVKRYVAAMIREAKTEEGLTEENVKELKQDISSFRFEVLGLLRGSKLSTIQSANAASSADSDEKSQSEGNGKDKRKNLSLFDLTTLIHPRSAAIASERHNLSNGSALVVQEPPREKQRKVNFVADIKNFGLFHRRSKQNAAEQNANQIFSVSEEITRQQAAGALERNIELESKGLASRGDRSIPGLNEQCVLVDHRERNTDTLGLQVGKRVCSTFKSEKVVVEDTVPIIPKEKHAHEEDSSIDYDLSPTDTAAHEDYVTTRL
EXPERIMENT NOTES: inhibitors of mouse TRPC4 channel, confirmation, cell-based, second round, Fluo4, HEK293 TRPC4beta/mu-opioid, 1 µM (AID 2637)
RUN CONDITIONS: Fluo4 calcium flux, DAMGO, at 1 µM
Calls of active or inactive are those of the source.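 The calls were made as follows: active = calcium signal ratio cut to more than 3 SD under the fully stimulated control mean yet still positive, in both repeats and the primary screen; inactive = the rest.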
Return exactly one item of active, inactive

{"MOLECULE": "CC(=O)Nc1ccc(CN2CCCC(C(=O)c3ccc(C(F)(F)F)cc3)C2)cc1 (centres undefined)", "CATEGORY LABEL": "inactive"}
{"MOLECULE": "COc1ccc(C(=O)NNC(=S)NC(=O)c2ccccc2)cc1", "CATEGORY LABEL": "inactive"}
{"MOLECULE": "CN(C)CCCN(C(=O)c1ccc(S(=O)(=O)N(C)Cc2ccccc2)cc1)c1nc2cc3c(cc2s1)OCO3", "CATEGORY LABEL": "inactive"}
{"MOLECULE": "COc1ccc(C(CNC(=O)C(C)c2ccc3cc(OC)ccc3c2)N(C)C)cc1 (centres undefined)", "CATEGORY LABEL": "inactive"}
{"MOLECULE": "CCC1(c2ccc(F)cc2)NC(=O)N(CC(=O)c2cc(C)n(C3CC3)c2C)C1=O (centres undefined)", "CATEGORY LABEL": "inactive"}

Prompt: Hi team, can someone confirm the assay call for Cc1cccc(C(=O)NC(=S)NNC(=O)c2cccs2)c1 ?
Completion: inactive

Prompt: Hi team, can someone confirm the assay call for CCOC(=O)C1(CCCc2ccccc2)CCN(Cc2cn(CC)nc2C)CC1 ?
Completion: inactive

Prompt: Hi team, can someone confirm the assay call for Cc1sc2ncnc(NC3CCN(Cc4ccccc4)CC3)c2c1C ?
Completion: inactive

Prompt: Hi team, can someone confirm the assay call for Cc1ccc(C)c(-n2cc(CNCCc3cnccn3)c(-c3ccccc3)n2)c1 ?
Completion: inactive

Prompt: Hi team, can someone confirm the assay call for O=C(c1sc2ccccc2c1Cl)N(Cc1cccs1)C1CCS(=O)(=O)C1 (centres undefined) ?
Completion: inactive

* * *

Tested on: TRPC4 beta (transient receptor potential cation channel C4), mouse
EXPERIMENT NOTES: activators of mouse TRPC4 channel, confirmation, cell-based, Fluo4 calcium, HEK293 TRPC4beta/mu-opioid, duplicates, 10 µM (AID 2426);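 for activation: percent rise of integrated ratio over buffer wells lacking compound which define 0%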
RUN CONDITIONS: Fluo4 calcium fluorescence, at 10 µM; active compounds read high
Active and inactive are the calls of the source.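 Rule for the calls: active = fluorescence ratio normalized to control raised more than 50% in primary screen plus both repeat runs; inactive = the rest.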
QUANTITY: activation

{"MOLECULE": "Cc1onc(-c2ccccc2)c1C(=O)NC(=S)NNC(=O)c1ccco1", "activation": "142% (active)"}
{"MOLECULE": "CSCCC(NS(=O)(=O)c1ccc2c(c1)c(=O)n(C)c(=O)n2C)C(=O)NC1CCN(Cc2ccccc2)CC1 (stereo unspecified)", "activation": "inactive"}
{"MOLECULE": "CCN(CC)CCSc1nc2ccc(OC)cc2[nH]1", "activation": "90% (active)"}
{"MOLECULE": "COc1ccc2nc(NS(=O)(=O)c3ccc(NC(C)=O)cc3)sc2c1", "activation": "inactive"}
{"MOLECULE": "Cc1cc(OCCNCCO)cc(C)c1Cl", "activation": "122% (active)"}

Here is the next item to consider.
Prompt: Return reported activation for target or system TRPC4 beta (transient receptor potential cation channel C4), mouse, item CCN1CCN(c2c(S(=O)(=O)c3ccc(C)c(C)c3)cnc3ccc(F)cc23)CC1 .
Completion: 106% (active)

* * *

EXPERIMENTAL TARGET: Short transient receptor potential channel 6 (Mus musculus)
EXPERIMENT NOTES: activation of mouse TRPC6 channel, confirmation, selectivity assay for TRPC4 activator project, cell-based, HEK293, membrane potential dye, duplicate (AID 434950);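 for activation: 0% = buffer only wells and 100% = acetylcholine maximal-effect wells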
RUN CONDITIONS: HEK293 TRPC6, membrane potential fluorescence, at 10 µM
Active and inactive are the calls of the source.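 Rule for the calls: active = membrane potential signal rise above negative control mean plus 3 SD in both duplicates, also active in the earlier TRPC4 screen; inactive = the rest.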
Return exactly one item of class 1 (active), class 0 (inactive)

Please review the entries below; each comes with its answer.
{"COMPOUND": "CC1CC(C)CN(CCCNC(=O)c2nn(C)c3c2CS(=O)(=O)c2ccccc2-3)C1 (stereo not given)", "CATEGORY LABEL": "class 1"}
{"COMPOUND": "COc1ccc(C(=O)NNC(=S)NC(=O)c2ccccc2)cc1", "CATEGORY LABEL": "class 1"}
{"COMPOUND": "COC(=O)c1ccc(N2CCN(C)CC2)c(NC(=O)COc2ccccc2)c1", "CATEGORY LABEL": "class 0"}
{"COMPOUND": "CN(C)CCCN(C(=O)c1ccc(S(=O)(=O)N2CCOCC2)cc1)c1nc2ccc(F)cc2s1", "CATEGORY LABEL": "class 0"}

From here, focus on the item given below.
Prompt: Hi team, can someone confirm the assay call for NCCSc1c(-c2ccc(Cl)cc2)[nH]c2ccccc12 ?
Completion: class 0
